assay: LNP encapsulation efficiency (Quant-it Ribogreen); format: physicochemical; settings: mRNA LNP, cationic lipid/DSPC/cholesterol/PEG-lipid 50:10:38.5:1.5

{"COMPOUND": "CCCCCC/C=C\\CCCCCCCC(C(=O)NCCCCCCCC/C=C\\CCCCCCCC)N(CCCN(C)C)C(=O)CCCCCCC/C=C\\CCCCCCCC (stereo not shown)", "Encapsulation efficiency (%)": 82.17}
{"COMPOUND": "CCCCCCC(CCCCCC)OC(=O)CCCCCCCCCNC(=O)C(CCCCCCCCCC(=O)OC(CCCCCC)CCCCCC)N(CCCN(CCO)CCO)C(=O)CCCN(C)C (stereo not shown)", "Encapsulation efficiency (%)": 89.28}
{"COMPOUND": "CCCCCCC(CCCCCC)OC(=O)CCCCCCCCCNC(=O)C(CCCCCCCCCC(=O)OC(CCCCCC)CCCCCC)N(CCCN(CCO)CCO)C(=O)CCCN(C)CCO (stereo not shown) [Compound E2]", "Encapsulation efficiency (%)": 91.65}
{"COMPOUND": "CCCCCCCC(C(=O)NCCCCCCCCCC(=O)OC(CCCCCC)CCCCCC)N(CCn1ccnc1)C(=O)CCCCCCCCCC(=O)OC(CCCCCC)CCCCCC (stereo not shown)", "Encapsulation efficiency (%)": 81.99}

* * *

assay: LNP size and PDI by dynamic light scattering; assay type: physicochemical; conditions: mRNA LNP, cationic lipid/DSPC/cholesterol/PEG-lipid 50:10:38.5:1.5
Decide using PDI: a value greater than or equal to 0.2 is fulfilled, a smaller one is not fulfilled.

{"MOLECULE": "CCCCCCCC(C(=O)NCCCCCCCCCC(=O)OC(CCCCCC)CCCCCC)N(CCCN(C)C)C(=O)CCCCCCCCCC(=O)OCC12CC3CC(CC(C3)C1)C2 (stereo not drawn) [Compound A17]", "CATEGORY": "not fulfilled"}
{"MOLECULE": "CCCCCCCC(C(=O)NCCCCCCCCCC(=O)OC(CCCCCC)CCCCCC)N(CCCN(C)C)C(=O)CCCCCCCCCC(=O)OC(CCCCCC)CCCCCC (stereo not drawn) [Compound A12]", "CATEGORY": "fulfilled"}
{"MOLECULE": "CCCCCCCCNC(=O)CCCCCNC(=O)C(CCCCCCCC)N(CCCN(C)C)C(=O)CCCCCC(=O)NC(CCCCCCC)CCCCCCC (stereo not drawn) [Compound A31]", "CATEGORY": "fulfilled"}
{"MOLECULE": "CCCCCCC(CCCCCC)OC(=O)CCCCCCCCCNC(=O)C(CCCCCCCCCC(=O)OC(CCCCCC)CCCCCC)N(CCCN(C)C)C(=O)CCCN(C)C (stereo not drawn) [Compound E6]", "CATEGORY": "fulfilled"}
{"MOLECULE": "CCCCCC/C=C\\CCCCCCCC(C(=O)NCCCCCC)N(CCCN(C)C)C(=O)CCCCCCC(=O)OC(CCCCCCCC)CCCCCCCC (stereo not drawn) [Compound A40]", "CATEGORY": "not fulfilled"}

* * *

assay: LNP size and PDI by dynamic light scattering; assay type: physicochemical; conditions: mRNA LNP, cationic lipid/DSPC/cholesterol/PEG-lipid 50:10:38.5:1.5
The following molecules are listed with their measured Size (nm) values.

{"MOLECULE": "CCCCC/C=C\\C/C=C\\CCCCCCCCC(CCCCCCCC/C=C\\C/C=C\\CCCCC)OC(=O)CCCN(C)C [DLin-MC3, reference compound]", "Size (nm)": 87.75}
{"MOLECULE": "CCCCCCCCNC(=O)C(CCCCCCCC)N(CCCN(C)CCO)C(=O)CCCCCCC(=O)OC(CCCCCCCC)CCCCCCCC (stereo not drawn)", "Size (nm)": 64.27}
{"MOLECULE": "CCCCCCC(CCCCCC)OC(=O)CCCCCCCCCNC(=O)C(CCCCCCCCCC(=O)OC(CCCCCC)CCCCCC)N(CCCN1CCCC1)C(=O)CCCN1CCCC1 (stereo not drawn)", "Size (nm)": 92.75}
{"MOLECULE": "CCCCCCCC/C=C\\CCCCCCCCNC(=O)C(CCCCCCCC)N(CCCCCCCC/C=C\\CCCCCCCC)C(=O)CCCN(C)C (stereo not drawn)", "Size (nm)": 60.62}
{"MOLECULE": "CCCCCCC(CCCCCC)OC(=O)CCCCCCCCCNC(=O)C(CCCCCCCCCC(=O)OC(CCCCCC)CCCCCC)N(CCCN(C)C)C(=O)CCCN(C)C (stereo not drawn)", "Size (nm)": 81.59}
{"MOLECULE": "CCCCCCCCC(CCCCCCCC)OC(=O)CCCCCC(=O)N(CCCN(C)C)C(CCCCCCCC)C(=O)NCCCCCC(=O)OCCC12CC3CC(CC(C3)C1)C2 (stereo not drawn)", "Size (nm)": 64.27}
{"MOLECULE": "CCCCCCCCC(C(=O)NCCCCCCCCCC(=O)OCCCCCC)N(CCCN(C)C)C(=O)CCCCCCCCCC(=O)OC(CCCCCC)CCCCCC (stereo not drawn)", "Size (nm)": 113.2}
{"MOLECULE": "CCCCCCCC(C(=O)NCCCCCCCCCC(=O)OC(CCCCCC)CCCCCC)N(CCCNC(=S)N(C)C)C(=O)CCCCCCCCCC(=O)OC(CCCCCC)CCCCCC (stereo not drawn)", "Size (nm)": 84.45}
{"MOLECULE": "CCCCCCCCNC(=O)C(CCCCCCCC)N(CCN(CC)CCO)C(=O)CCCCCCC(=O)OC(CCCCCCCC)CCCCCCCC (stereo not drawn)", "Size (nm)": 62.10}
{"MOLECULE": "CCCCCCCCNC(=O)CCCCCNC(=O)C(CCCCCCCC)N(CCCN(C)C)C(=O)CCCCCC(=O)NC(CCCCCCC)CCCCCCC (stereo not drawn)", "Size (nm)": 79.94}
{"MOLECULE": "CCCCCCCCC(C(=O)NCCCCCCCCCC(=O)OCC12CC3CC(CC(C3)C1)C2)N(CCCN1CCCC1)C(=O)CCCCCCCCCC(=O)OC(CCCCCC)CCCCCC (stereo not drawn)", "Size (nm)": 66.98}
{"MOLECULE": "CCCCCCC(CCCCCC)OC(=O)CCCCCCCCCNC(=O)C(CCCCCCCCCC(=O)OC(CCCCCC)CCCCCC)N(CCCN(CCO)CCO)C(=O)CCCN(C)C (stereo not drawn)", "Size (nm)": 93.07}
{"MOLECULE": "CCCCCCCCC(CCCCCC)COC(=O)CCCCCNC(=O)C(CCCCC)N(CCCCN1CCCC1)C(=O)CCCCCC(=O)OCC(CCCCCC)CCCCCCCC (stereo not drawn)", "Size (nm)": 107.50}
{"MOLECULE": "CCCCCCC(CCCCCC)OC(=O)CCCCCCCCCNC(=O)C(CCCCCCCCCC(=O)OC(CCCCCC)CCCCCC)N(CCCN(CC)CC)C(=O)CCCN(CC)CC (stereo not drawn)", "Size (nm)": 95.52}
{"MOLECULE": "CCCCCCCC(C(=O)NCCCCCCCCCC(=O)OC(CCCCCC)CCCCCC)N(CCCN(C)C)C(=O)CCCCCCCCCC(=O)OCC1CC=CCC1 (stereo not drawn)", "Size (nm)": 78.64}
{"MOLECULE": "CCCCCCCCNC(=O)C(CCCCCCCC)N(CCCN(CCO)CCO)C(=O)CCCCCCC(=O)OC(CCCCCCCC)CCCCCCCC (stereo not drawn)", "Size (nm)": 105.63}
{"MOLECULE": "CCCCCC/C=C\\CCCCCCCC(C(=O)NCCCCCCCC/C=C\\CCCCCCCC)N(CCCN(C)C)C(=O)CCCCCCC/C=C\\CCCCCCCC (stereo not drawn)", "Size (nm)": 78.44}
{"MOLECULE": "CCCCCCC(CCCCCC)OC(=O)CCCCCCCCCNC(=O)C(CCCCCCCCCC(=O)OC(CCCCCC)CCCCCC)N(CCCN1CCN(CO)CC1)C(=O)CCCN1CCN(CCO)CC1 (stereo not drawn)", "Size (nm)": 85.75}
{"MOLECULE": "CCCCCCCCCCOCCCCCCCC(=O)N(CCCN(C)C)C(CCCCCCCC)C(=O)NCCCCCC(=O)OC(CCCCCCCC)CCCCCCCC (stereo not drawn)", "Size (nm)": 264.60}
{"MOLECULE": "CCCCCCCCCCCNC(=O)C(CCCCCCCC)N(CCN(C)CCN(C(=O)CCCCCCCCCC(=O)OC(CCCCCC)CCCCCC)C(CCCCCCCC)C(=O)NCCCCCCCCCC)C(=O)CCCCCCCCCC(=O)OC(CCCCCC)CCCCCC (stereo not drawn)", "Size (nm)": 113.2}
{"MOLECULE": "CCCCCCCCC(CCCCCC)COC(=O)CCCCCCCCCNC(=O)C(CCCCCCCC)N(CCCN1CCCC1)C(=O)CCCCCCCCCC(=O)OCC(CCCCCC)CCCCCCCC (stereo not drawn)", "Size (nm)": 72.85}
{"MOLECULE": "CCCCCCC(CCCCCC)OC(=O)CCCCCCCCCNC(=O)C(CCCCCCCCCC(=O)OC(CCCCCC)CCCCCC)N(CCCN(C)CCO)C(=O)CCCN(C)CCO (stereo not drawn)", "Size (nm)": 84.36}
{"MOLECULE": "CCCCCCCCNC(=O)C(CCCC)N(CCCN(C)C)C(=O)CCCCCCC(=O)OC(CCCCCCCC)CCCCCCCC (stereo not drawn)", "Size (nm)": 121.37}
{"MOLECULE": "CCCCCCCCNC(=O)C(CCCCC)N(CCCN(C)C)C(=O)CCCCCCC(=O)OC(CCCCCCCC)CCCCCCCC (stereo not drawn)", "Size (nm)": 88.05}

Data provenance: patent US20260078099A1
